B1: COUP transcription factor 1, residues 83 to 159; numbered along this chain, P10589 (parent)
chain: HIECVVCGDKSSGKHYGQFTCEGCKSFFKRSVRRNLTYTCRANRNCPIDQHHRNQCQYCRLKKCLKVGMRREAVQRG

- Variants of: B1
- assay-method-text: abundance fitness (aPCA) (normalised: wild type 0, dead -1); higher = more abundant; growth selection in yeast, the domain comes from the species named
- condition-parameters: Homo sapiens
Quick list: abundance fitness per entry.

- mutations: "N43E"
  abundance fitness: 0.227
- mutations: "T39V"
  abundance fitness: 0.013
- mutations: "T37Q"
  abundance fitness: -0.104
- mutations: "K63R"
  abundance fitness: -0.094
- mutations: "R76Q"
  abundance fitness: 0.083
- mutations: "R53C"
  abundance fitness: -0.001
- mutations: "N54V"
  abundance fitness: -0.025
- mutations: "Y58M"
  abundance fitness: -0.312
- mutations: "C64Q"
  abundance fitness: -0.8
- mutations: "R76M"
  abundance fitness: -0.047
- mutations: "T20Q"
  abundance fitness: -0.382
- mutations: "N45H"
  abundance fitness: -0.182
- mutations: "I48A"
  abundance fitness: -0.366
- mutations: "C24N"
  abundance fitness: -0.702
- mutations: "A42L"
  abundance fitness: 0
- mutations: "Q75I"
  abundance fitness: -0.077
- mutations: "V32M"
  abundance fitness: 0.072
- mutations: "G23R"
  abundance fitness: -0.081
- mutations: "F28D"
  abundance fitness: -0.991
- mutations: "V67I"
  abundance fitness: -0.093
- mutations: "N45P"
  abundance fitness: 0.015
- mutations: "C64Y"
  abundance fitness: -0.537
- mutations: "V74N"
  abundance fitness: -0.061
- mutations: "C21A"
  abundance fitness: -0.707
- mutations: "R70L"
  abundance fitness: 0.07
- mutations: "K25G"
  abundance fitness: 0.064
- mutations: "H52C"
  abundance fitness: -0.092
- mutations: "E22D"
  abundance fitness: -0.025
- mutations: "R41A"
  abundance fitness: 0.207
- mutations: "Q57N"
  abundance fitness: 0.163
- mutations: "R34W"
  abundance fitness: -0.25
- mutations: "F19G"
  abundance fitness: -0.53
- mutations: "N54Q"
  abundance fitness: -0.091
- mutations: "R53Q"
  abundance fitness: 0.12
- mutations: "Y16N"
  abundance fitness: -0.539
- mutations: "T39G"
  abundance fitness: -0.099
- mutations: "K25H"
  abundance fitness: 0.283
- mutations: "C24R"
  abundance fitness: -0.795
- mutations: "V67N"
  abundance fitness: -0.125
- mutations: "R76F"
  abundance fitness: 0.097
- mutations: "C59Q"
  abundance fitness: -0.801
- mutations: "R30E"
  abundance fitness: 0.054
- mutations: "Q18L"
  abundance fitness: 0.01
- mutations: "C40K"
  abundance fitness: -0.384
- mutations: "Y58I"
  abundance fitness: -0.866
- mutations: "R44Y"
  abundance fitness: -0.432
- mutations: "R71C"
  abundance fitness: -0.062
- mutations: "S31Q"
  abundance fitness: 0.053
- mutations: "R30K"
  abundance fitness: 0.389
- mutations: "D49E"
  abundance fitness: -0.064
- mutations: "Y58Q"
  abundance fitness: -0.231
- mutations: "F28Q"
  abundance fitness: -0.809
- mutations: "C59K"
  abundance fitness: -0.871
- mutations: "F19E"
  abundance fitness: 0.166
- mutations: "C24D"
  abundance fitness: -0.335
- mutations: "V74L"
  abundance fitness: -0.224
- mutations: "K29Q"
  abundance fitness: 0.03
- mutations: "C56I"
  abundance fitness: -0.627
- mutations: "V74R"
  abundance fitness: -0.449
- mutations: "Q55L"
  abundance fitness: -0.059
- mutations: "R76L"
  abundance fitness: 0.024

Recorded values, source the Human Domainome abundance scans (Beltran et al. 2025).
